Origin of measurements: patent US20260116991A1

Molecular target: T1, polypeptide GC3pep (human)
T1 construct: also called membrane proximal polypeptide GC3pep
T1 peptide: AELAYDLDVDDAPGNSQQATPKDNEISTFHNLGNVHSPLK
Assay: ELISA, GC3pep coated, antibody 100 nM;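 note: detection with an HRP-conjugated secondary antibody and TMB substrate, color reaction stopped with HCl before absorbance reading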
Quantity name: OD450 nm (OD450 nm)
Expressed in OD450 nm, but write only the number.

binder="F1.57.21 (antibody, human IgG1, kappa, V domains shown, human-murine chimeric antibody) VH: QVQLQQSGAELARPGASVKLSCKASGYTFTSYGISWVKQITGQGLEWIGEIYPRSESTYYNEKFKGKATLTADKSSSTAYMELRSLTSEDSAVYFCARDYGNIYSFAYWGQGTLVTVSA VL: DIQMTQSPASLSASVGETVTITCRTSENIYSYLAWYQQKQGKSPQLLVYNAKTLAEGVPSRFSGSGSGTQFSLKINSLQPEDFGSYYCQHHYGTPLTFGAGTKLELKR" quantity_name="OD450 nm" units_text="OD450 nm" quantitative_readout=0.06
binder="F2.39.2 (antibody, human IgG1, kappa, V domains shown, human-murine chimeric antibody) VH: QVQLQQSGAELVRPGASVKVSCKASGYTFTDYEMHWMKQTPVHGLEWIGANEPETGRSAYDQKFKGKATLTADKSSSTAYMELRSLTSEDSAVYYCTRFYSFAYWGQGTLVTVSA VL: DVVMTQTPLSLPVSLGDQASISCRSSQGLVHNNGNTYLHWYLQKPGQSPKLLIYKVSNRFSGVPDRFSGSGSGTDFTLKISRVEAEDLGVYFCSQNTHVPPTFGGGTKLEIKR" quantity_name="OD450 nm" units_text="OD450 nm" quantitative_readout=2.58

Could you now look at the following binder, please?
Q) Any idea what OD450 nm was measured for F1.83.6 (antibody, human IgG1, kappa, V domains shown, human-murine chimeric antibody) VH: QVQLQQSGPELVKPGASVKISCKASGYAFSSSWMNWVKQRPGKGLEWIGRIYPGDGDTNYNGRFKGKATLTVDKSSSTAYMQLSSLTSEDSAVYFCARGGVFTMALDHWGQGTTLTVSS VL: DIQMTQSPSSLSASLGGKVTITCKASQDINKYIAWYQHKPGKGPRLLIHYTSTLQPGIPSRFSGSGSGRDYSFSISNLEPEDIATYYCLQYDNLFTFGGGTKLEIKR ?
A) 0.07
